- Tested System: Galectin-1 (Homo sapiens, UniProt P09382)
- Sequence (P09382 whole entry): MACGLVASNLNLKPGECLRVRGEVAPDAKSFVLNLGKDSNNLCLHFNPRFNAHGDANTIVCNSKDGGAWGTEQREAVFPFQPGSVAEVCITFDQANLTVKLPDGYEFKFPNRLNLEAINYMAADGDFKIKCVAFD
Quantity Measured: IC50 (µM)
Kindly answer with a numeric value in µM, unit omitted.

Give its IC50 value. Item: CCOC(=O)C1CCN(Cc2cc(=O)oc3cc(OCc4ccc([N+](=O)[O-])cc4)ccc23)CC1
100

---

- Tested System: P-selectin (Homo sapiens)
- Sequence (P16109 whole entry): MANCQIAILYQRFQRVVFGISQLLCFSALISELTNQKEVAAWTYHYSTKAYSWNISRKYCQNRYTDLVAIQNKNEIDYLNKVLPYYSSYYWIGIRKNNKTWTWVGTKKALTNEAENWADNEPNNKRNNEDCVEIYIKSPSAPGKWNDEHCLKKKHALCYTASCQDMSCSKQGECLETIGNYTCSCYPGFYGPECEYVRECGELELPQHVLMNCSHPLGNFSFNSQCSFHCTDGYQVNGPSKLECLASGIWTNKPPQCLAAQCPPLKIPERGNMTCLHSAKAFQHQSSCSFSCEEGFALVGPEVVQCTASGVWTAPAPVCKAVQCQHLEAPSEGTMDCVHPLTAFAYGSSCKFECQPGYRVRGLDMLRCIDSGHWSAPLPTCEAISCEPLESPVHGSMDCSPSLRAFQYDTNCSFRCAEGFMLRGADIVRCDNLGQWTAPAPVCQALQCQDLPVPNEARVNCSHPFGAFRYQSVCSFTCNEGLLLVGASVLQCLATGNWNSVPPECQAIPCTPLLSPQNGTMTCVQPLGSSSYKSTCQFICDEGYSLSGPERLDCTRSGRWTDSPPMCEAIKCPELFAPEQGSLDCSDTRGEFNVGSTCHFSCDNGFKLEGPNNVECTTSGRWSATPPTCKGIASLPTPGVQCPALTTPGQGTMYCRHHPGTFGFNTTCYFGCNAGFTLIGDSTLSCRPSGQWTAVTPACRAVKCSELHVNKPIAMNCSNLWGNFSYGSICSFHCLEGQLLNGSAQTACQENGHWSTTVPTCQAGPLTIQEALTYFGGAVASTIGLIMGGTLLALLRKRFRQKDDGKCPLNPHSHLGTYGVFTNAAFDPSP
- Protocol Description: Inhibition of P-selectin (unknown origin) incubated for 30 mins by ELISA
Quantity Measured: pIC50
# reply with the number alone; pIC50 is -log10 of concentration in mol/L

Given the molecule CCCCCCCCCCCCCCCCNC(=O)/C=C/c1ccc(-c2[nH]c(-c3ccc(C4=NNC(C=O)C4)cc3)nc2-c2ccc(/C=C/C(=O)O)cc2)cc1 (stereo unspecified) , what is its reported pIC50?
6.52
